target: recombinant human AMPK complex 7 (containing α2β1γ1) (Homo sapiens (Human), UniProt P54646+Q9Y478); test: in vitro AMPK activation assay (AMPKSAMSF), complex 7; type: biochemical; conditions: 10-point titration, expressed as % maximum AMP activation
Sequence (P54646 whole entry): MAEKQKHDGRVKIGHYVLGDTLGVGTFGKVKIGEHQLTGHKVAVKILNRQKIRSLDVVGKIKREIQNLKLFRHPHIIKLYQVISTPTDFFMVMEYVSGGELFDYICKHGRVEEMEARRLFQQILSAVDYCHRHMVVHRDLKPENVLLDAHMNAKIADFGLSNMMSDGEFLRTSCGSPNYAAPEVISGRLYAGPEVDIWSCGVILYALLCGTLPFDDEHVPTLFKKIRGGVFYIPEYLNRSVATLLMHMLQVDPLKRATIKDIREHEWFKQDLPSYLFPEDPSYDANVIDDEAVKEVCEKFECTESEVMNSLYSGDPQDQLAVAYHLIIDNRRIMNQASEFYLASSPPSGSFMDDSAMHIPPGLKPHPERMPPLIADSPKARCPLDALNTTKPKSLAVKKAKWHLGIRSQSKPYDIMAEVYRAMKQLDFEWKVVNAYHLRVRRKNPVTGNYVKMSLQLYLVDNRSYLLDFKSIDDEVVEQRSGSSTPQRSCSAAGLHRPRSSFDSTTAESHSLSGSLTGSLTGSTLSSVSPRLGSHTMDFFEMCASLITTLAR
Sequence (Q9Y478 whole entry): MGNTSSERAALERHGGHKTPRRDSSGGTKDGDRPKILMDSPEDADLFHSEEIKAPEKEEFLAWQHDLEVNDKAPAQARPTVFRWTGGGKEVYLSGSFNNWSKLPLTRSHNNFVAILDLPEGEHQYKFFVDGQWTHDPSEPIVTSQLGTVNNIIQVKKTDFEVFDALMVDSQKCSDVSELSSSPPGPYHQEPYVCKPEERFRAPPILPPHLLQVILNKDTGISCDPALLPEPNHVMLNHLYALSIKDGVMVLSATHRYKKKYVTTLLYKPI
Sequence (P54619 whole entry partner): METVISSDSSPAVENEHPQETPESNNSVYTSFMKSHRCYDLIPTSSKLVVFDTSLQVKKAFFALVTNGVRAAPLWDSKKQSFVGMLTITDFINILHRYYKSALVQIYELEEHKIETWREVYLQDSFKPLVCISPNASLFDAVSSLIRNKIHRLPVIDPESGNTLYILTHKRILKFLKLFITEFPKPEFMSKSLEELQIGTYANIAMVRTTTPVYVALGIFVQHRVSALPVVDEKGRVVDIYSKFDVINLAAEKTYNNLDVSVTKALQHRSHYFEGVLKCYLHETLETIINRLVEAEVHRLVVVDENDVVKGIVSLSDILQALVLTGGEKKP
QUANTITY KIND: Emax (%)
Give the quantity in %, number only.

Report Emax for O[C@@H]1CO[C@H]2[C@@H]1OC[C@H]2Oc1nc2nc(-c3ccc(-c4ccc(-n5cc(C(O)(O)C(F)(F)F)nn5)cc4)cc3)c(Cl)cc2[nH]1 [Example 128] please.
286

Need Emax of OCc1ccc(-c2ccc(-c3nc4nc(O[C@@H]5CO[C@H]6[C@@H]5OC[C@H]6O)[nH]c4cc3Cl)cc2)cc1 [Example 146] , thanks.
354

I'd like to know its Emax. The compound in question is CCN(CC)c1ccc(-c2ccc(-c3nc4nc(O[C@@H]5CO[C@H]6[C@@H]5OC[C@H]6O)[nH]c4cc3Cl)cc2)cc1 [Example 105]
268

Query: Emax; subject: O[C@@H]1CO[C@H]2[C@@H]1OC[C@H]2Oc1nc2nc(-c3ccc(-c4ccc(Cn5ncnn5)cc4)cc3)c(Cl)cc2[nH]1 [Example 142]
337

Quick one: Emax for C=CCO[C@@H]1CO[C@H]2[C@@H]1OC[C@H]2Oc1nc2nc(-c3ccc(-c4ccccc4)cc3)c(Cl)cc2[nH]1 [Example 18] ?
72

Would you kindly share the measured Emax for O=c1ccn(-c2ccc(-c3ccc(-c4nc5nc(O[C@@H]6CO[C@H]7[C@@H]6OC[C@H]7O)[nH]c5cc4Cl)cc3)cc2)[nH]1 [Example 150] ?
322

So what's the measured Emax for this one? Oc1ccnc(-c2ccc(-c3ccc(-c4nc5nc(O[C@@H]6CO[C@H]7[C@@H]6OC[C@H]7O)[nH]c5cc4Cl)cc3)cc2)n1 [Example 130]
291

State the recorded Emax for this entry: O[C@@H]1CO[C@H]2[C@@H]1OC[C@H]2Oc1nc2nc(-c3ccc(-c4ccc(Cn5ccnc5)cc4)cc3)c(Cl)cc2[nH]1 [Example 147]
348

Entry under review: N#Cc1ccc(-c2ccc(-c3nc4nc(O[C@@H]5CO[C@H]6[C@@H]5OC[C@H]6O)[nH]c4cc3Cl)cc2)c(F)c1 [Example 102] . Reported Emax?
304

So what's the measured Emax for this one? CC(CO)(CO)c1ccc(-c2ccc(-c3nc4nc(O[C@@H]5CO[C@H]6[C@@H]5OC[C@H]6O)[nH]c4cc3Cl)cc2)cc1 [Example 79]
337

Any idea what Emax was measured for O[C@@H]1CO[C@H]2[C@@H]1OC[C@H]2Oc1nc2nc(-c3ccc(C#CC4CCNCC4)cc3)c(Cl)cc2[nH]1 [Example 71] ?
420

Returns the measured Emax for the input compound. Input: O[C@@H]1CO[C@H]2[C@@H]1OC[C@H]2Oc1nc2nc(-c3ccc(-c4ccc(C5Cc6nccn6C5)cc4)cc3)c(Cl)cc2[nH]1 (stereo partly drawn) [Example 126]
303
